GI50 values, listed per item
- Test system: HCC 2998
- assay-remarks: Growth inhibition of human HCC2998 cells incubated for 48 hrs by sulforhodamine B assay
- Assay type: functional
- condition-label: HCC 2998, 48 h
readout: GI50 (nM)

>  <chemical-structure>
COc1ccccc1CNCCCN1C(=O)c2ccc3c4c(ccc(c24)C1=O)C(=O)N(CCCNCCCN)C3=O

>  <value-measured>
352

$$$$
>  <chemical-structure>
CNCCCNCCCCNCCCN1C(=O)c2ccc3c4c(ccc(c24)C1=O)C(=O)N(CCCNCc1ccccc1OC)C3=O

>  <value-measured>
3120

$$$$
>  <chemical-structure>
COc1ccccc1CNCCCN1C(=O)c2ccc3c4c(ccc(c24)C1=O)C(=O)N(CCCNCCCCN)C3=O

>  <value-measured>
149

$$$$
>  <chemical-structure>
COc1ccccc1CNCCCN1C(=O)c2ccc3c4c(ccc(c24)C1=O)C(=O)N(CCCNCCCCNCCCN)C3=O

>  <value-measured>
296

$$$$

* * *

GI50 values, listed per item
- Tested on: Malme-3M
- assay-remarks: Growth inhibition of human MALME-3M cells incubated for 48 hrs by sulforhodamine B assay
- Assay type: functional

>  <chemical-structure>
CNCCCNCCCCNCCCN1C(=O)c2ccc3c4c(ccc(c24)C1=O)C(=O)N(CCCNCc1ccccc1OC)C3=O

>  <GI50 (nM)>
939

$$$$
>  <chemical-structure>
COc1ccccc1CNCCCN1C(=O)c2ccc3c4c(ccc(c24)C1=O)C(=O)N(CCCOCCCCOCCCN)C3=O

>  <GI50 (nM)>
248

$$$$
>  <chemical-structure>
COc1ccccc1CNCCCN1C(=O)c2ccc3c4c(ccc(c24)C1=O)C(=O)N(CCCNCCCCN)C3=O

>  <GI50 (nM)>
174

$$$$
>  <chemical-structure>
COc1ccccc1CNCCCN1C(=O)c2ccc3c4c(ccc(c24)C1=O)C(=O)N(CCCNCCCN)C3=O

>  <GI50 (nM)>
393

$$$$
>  <chemical-structure>
COc1ccccc1CNCCCN1C(=O)c2ccc3c4c(ccc(c24)C1=O)C(=O)N(CCCNCCNCCCN)C3=O

>  <GI50 (nM)>
1610

$$$$
>  <chemical-structure>
COc1ccccc1CNCCCN1C(=O)c2ccc3c4c(ccc(c24)C1=O)C(=O)N(CCCCNCCCN)C3=O

>  <GI50 (nM)>
984

$$$$
>  <chemical-structure>
CNCCCNCCCN1C(=O)c2ccc3c4c(ccc(c24)C1=O)C(=O)N(CCCNCc1ccccc1OC)C3=O

>  <GI50 (nM)>
633

$$$$
>  <chemical-structure>
COc1ccccc1CNCCCN1C(=O)c2ccc3c4c(ccc(c24)C1=O)C(=O)N(CCCNCCCCNCCCN)C3=O

>  <GI50 (nM)>
241

$$$$
>  <chemical-structure>
COc1ccccc1CNCCCN1C(=O)c2ccc3c4c(ccc(c24)C1=O)C(=O)N(CCCN)C3=O

>  <GI50 (nM)>
366

$$$$

* * *

GI50 values, listed per item
- Tested on: SNB-75
- assay-remarks: Growth inhibition of human SNB75 cells incubated for 48 hrs by sulforhodamine B assay
- Assay type: functional
- condition-label: SNB-75, 48 h

>  <chemical-structure>
COc1ccccc1CNCCCN1C(=O)c2ccc3c4c(ccc(c24)C1=O)C(=O)N(CCCNCCCN)C3=O

>  <GI50 [nM]>
1300

$$$$
>  <chemical-structure>
COc1ccccc1CNCCCN1C(=O)c2ccc3c4c(ccc(c24)C1=O)C(=O)N(CCCNCCNCCCN)C3=O

>  <GI50 [nM]>
3070

$$$$
>  <chemical-structure>
COc1ccccc1CNCCCN1C(=O)c2ccc3c4c(ccc(c24)C1=O)C(=O)N(CCCNCCCCN)C3=O

>  <GI50 [nM]>
304

$$$$
>  <chemical-structure>
CNCCCNCCCCNCCCN1C(=O)c2ccc3c4c(ccc(c24)C1=O)C(=O)N(CCCNCc1ccccc1OC)C3=O

>  <GI50 [nM]>
1050

$$$$
>  <chemical-structure>
COc1ccccc1CNCCCN1C(=O)c2ccc3c4c(ccc(c24)C1=O)C(=O)N(CCCCNCCCN)C3=O

>  <GI50 [nM]>
16700

$$$$
>  <chemical-structure>
COc1ccccc1CNCCCN1C(=O)c2ccc3c4c(ccc(c24)C1=O)C(=O)N(CCCOCCCCOCCCN)C3=O

>  <GI50 [nM]>
1790

$$$$
>  <chemical-structure>
CNCCCNCCCN1C(=O)c2ccc3c4c(ccc(c24)C1=O)C(=O)N(CCCNCc1ccccc1OC)C3=O

>  <GI50 [nM]>
1110

$$$$
>  <chemical-structure>
COc1ccccc1CNCCCN1C(=O)c2ccc3c4c(ccc(c24)C1=O)C(=O)N(CCCN)C3=O

>  <GI50 [nM]>
1580

$$$$
>  <chemical-structure>
COc1ccccc1CNCCCN1C(=O)c2ccc3c4c(ccc(c24)C1=O)C(=O)N(CCCNCCCCNCCCN)C3=O

>  <GI50 [nM]>
752

$$$$

* * *

GI50 values, listed per item
- Test system: SR
- assay-remarks: Growth inhibition of human SR cells incubated for 48 hrs by sulforhodamine B assay
- Format: functional
readout: GI50

>  <chemical-structure>
COc1ccccc1CNCCCN1C(=O)c2ccc3c4c(ccc(c24)C1=O)C(=O)N(CCCCNCCCN)C3=O

>  <value-measured>
0.038 µM

$$$$
>  <chemical-structure>
CNCCCNCCCN1C(=O)c2ccc3c4c(ccc(c24)C1=O)C(=O)N(CCCNCc1ccccc1OC)C3=O

>  <value-measured>
0.27 µM

$$$$
>  <chemical-structure>
COc1ccccc1CNCCCN1C(=O)c2ccc3c4c(ccc(c24)C1=O)C(=O)N(CCCNCCNCCCN)C3=O

>  <value-measured>
0.898 µM

$$$$
>  <chemical-structure>
CNCCCNCCCCNCCCN1C(=O)c2ccc3c4c(ccc(c24)C1=O)C(=O)N(CCCNCc1ccccc1OC)C3=O

>  <value-measured>
4.42 µM

$$$$
>  <chemical-structure>
COc1ccccc1CNCCCN1C(=O)c2ccc3c4c(ccc(c24)C1=O)C(=O)N(CCCNCCCCN)C3=O

>  <value-measured>
0.076 µM

$$$$
>  <chemical-structure>
COc1ccccc1CNCCCN1C(=O)c2ccc3c4c(ccc(c24)C1=O)C(=O)N(CCCOCCCCOCCCN)C3=O

>  <value-measured>
0.346 µM

$$$$
>  <chemical-structure>
COc1ccccc1CNCCCN1C(=O)c2ccc3c4c(ccc(c24)C1=O)C(=O)N(CCCNCCCN)C3=O

>  <value-measured>
0.028 µM

$$$$
>  <chemical-structure>
COc1ccccc1CNCCCN1C(=O)c2ccc3c4c(ccc(c24)C1=O)C(=O)N(CCCNCCCCNCCCN)C3=O

>  <value-measured>
0.325 µM

$$$$
>  <chemical-structure>
COc1ccccc1CNCCCN1C(=O)c2ccc3c4c(ccc(c24)C1=O)C(=O)N(CCCN)C3=O

>  <value-measured>
0.167 µM

$$$$

* * *

GI50 values, listed per item
- Tested on: SW-620
- assay-remarks: Growth inhibition of human SW620 cells incubated for 48 hrs by sulforhodamine B assay
- Type: functional
- condition-label: SW-620, 48 h

>  <chemical-structure>
COc1ccccc1CNCCCN1C(=O)c2ccc3c4c(ccc(c24)C1=O)C(=O)N(CCCNCCNCCCN)C3=O

>  <GI50 (nM)>
1740

$$$$
>  <chemical-structure>
COc1ccccc1CNCCCN1C(=O)c2ccc3c4c(ccc(c24)C1=O)C(=O)N(CCCCNCCCN)C3=O

>  <GI50 (nM)>
641

$$$$
>  <chemical-structure>
CNCCCNCCCCNCCCN1C(=O)c2ccc3c4c(ccc(c24)C1=O)C(=O)N(CCCNCc1ccccc1OC)C3=O

>  <GI50 (nM)>
2160

$$$$
>  <chemical-structure>
COc1ccccc1CNCCCN1C(=O)c2ccc3c4c(ccc(c24)C1=O)C(=O)N(CCCN)C3=O

>  <GI50 (nM)>
442

$$$$

* * *

- Species on record: Homo sapiens
- assay-remarks: Stabilization of 5'Dabcyl/3'FAM labeled human telomeric sequence G-quadruplex DNA assessed as increase in melting temperature at 2.5 uM pretreated for 5 mins at 30 degreeC followed by 5 mins incubation at 95 degreeC by fluorescence assay
Kind request: treat 20 °C as inclusive, so ΔTm at 20 °C or higher is 1 (yes), anything lower is 0 (no).

>  <chemical-structure>
COc1ccccc1CNCCCN1C(=O)c2ccc3c4c(ccc(c24)C1=O)C(=O)N(CCCNCCCCN)C3=O

>  <cat>
1 (yes)

$$$$
>  <chemical-structure>
COc1ccccc1CNCCCN1C(=O)c2ccc3c4c(ccc(c24)C1=O)C(=O)N(CCCNCCNCCCN)C3=O

>  <cat>
1 (yes)

$$$$
>  <chemical-structure>
COc1ccccc1CNCCCN1C(=O)c2ccc3c4c(ccc(c24)C1=O)C(=O)N(CCCNCCCCNCCCN)C3=O

>  <cat>
1 (yes)

$$$$
>  <chemical-structure>
COc1ccccc1CNCCCN1C(=O)c2ccc3c4c(ccc(c24)C1=O)C(=O)N(CCCN)C3=O

>  <cat>
0 (no)

$$$$
>  <chemical-structure>
COc1ccccc1CNCCCN1C(=O)c2ccc3c4c(ccc(c24)C1=O)C(=O)N(CCCNCCCNCCCN)C3=O

>  <cat>
0 (no)

$$$$
>  <chemical-structure>
CNCCCNCCCN1C(=O)c2ccc3c4c(ccc(c24)C1=O)C(=O)N(CCCNCc1ccccc1OC)C3=O

>  <cat>
0 (no)

$$$$
>  <chemical-structure>
COc1ccccc1CNCCCN1C(=O)c2ccc3c4c(ccc(c24)C1=O)C(=O)N(CCCCNCCCN)C3=O

>  <cat>
1 (yes)

$$$$
>  <chemical-structure>
COc1ccccc1CNCCCN1C(=O)c2ccc3c4c(ccc(c24)C1=O)C(=O)N(CCCOCCCCOCCCN)C3=O

>  <cat>
0 (no)

$$$$
>  <chemical-structure>
COc1ccccc1CNCCCN1C(=O)c2ccc3c4c(ccc(c24)C1=O)C(=O)N(CCCNCCCN)C3=O

>  <cat>
0 (no)

$$$$
>  <chemical-structure>
CNCCCNCCCCNCCCN1C(=O)c2ccc3c4c(ccc(c24)C1=O)C(=O)N(CCCNCc1ccccc1OC)C3=O

>  <cat>
1 (yes)

$$$$
>  <chemical-structure>
COc1ccc(CNCCCN2C(=O)c3ccc4c5c(ccc(c35)C2=O)C(=O)N(CCCNCCCCNCCCN)C4=O)c(OC)c1OC

>  <cat>
0 (no)

$$$$
